As shown below, each of these variants has a reported self-cleavage value.
B1: HDV Ribozyme (parent)
chain: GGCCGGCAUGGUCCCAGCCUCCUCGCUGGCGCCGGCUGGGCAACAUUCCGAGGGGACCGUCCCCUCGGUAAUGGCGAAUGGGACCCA

Variants of: B1
Assay: self-cleavage, relative activity (ratio to wild type); higher = more cleavage; co-transcriptional
The response must contain the number and no unit.

- sequence_text: "GGCCGGCAUGGUCCCAGCCUCCUCGCUGGCGCCUGCUGGGUAACAUUCCGAGGGGACCGUCCCCUCGGUAAUGGCGAAUGGGACCCA [G34U C41U]"
  self-cleavage: 0.131
- sequence_text: "GGCCGGCAUGGUCCCAGCCUCCUCGCUGGCGCCGGCUGGGCAACAUUUCGAGGGGACCGUCCCCUCGGUAAUGGCGAAUGGGACCAA [C48U C86A]"
  self-cleavage: 0.985
- sequence_text: "GGCCGGCAUGGUCCCAGCCUCCUCGCUGGCGCCGGCUGGGCAACGUUCCGAGGCGACCGUCCCCUCGGUAAUGGCGAAUGGGACCCA [A45G G54C]"
  self-cleavage: 0.65
- sequence_text: "GGCCGGCAUGGUCCCAGCCUCCUCGCUGGCGCCGGCUGGGCAACAUUCCGAGGGGACCGUCCCCUCGGUAAUAGCGAGUGGGACCCA [G73A A78G]"
  self-cleavage: 0.203

Looking for the measured self-cleavage of GACCGGCAUGUUCCCAGCCUCCUCGCUGGCGCCGGCUGGGCAACAUUCCGAGGGGACCGUCCCCUCGGUAAUGGCGAAUGGGACCCA [G2A G11U] , can you help? 0.0328

I am curious: what self-cleavage value has been reported for GGCCGGCAUGGUCCCAGCCUCCUCGCUGGCGCCGGCUGGGCAACAUUCCGAGGGAACCGUCCCCUCGGUAAUGGCGAAUGGGACACA [G55A C85A] ? 1.02

Data request, read-out self-cleavage, for CGCCGGCAUGGACCCAGCCUCCUCGCUGGCGCCGGCUGGGCAACAUUCCGAGGGGACCGUCCCCUCGGUAAUGGCGAAUGGGACCCA [G1C U12A] 0
